target: WRN helicase (aa N517-P1238) (Homo sapiens, UniProt Q14191); construct: The core helicase motif of the WRN protein (aa N517-P1238) was produced for this assay; His (N); ZZ (N); 3C protease cleavage site (N); virus and BIICs made in SF9); experiment: WRN ATPase assay (DNA dependent ATP hydrolysis, ADP-Glo); conditions: 3 hours pre-incubation, 300 micromolar ATP, FLAP26 DNA; geometric mean of at least 2
Sequence (Q14191 517-1238): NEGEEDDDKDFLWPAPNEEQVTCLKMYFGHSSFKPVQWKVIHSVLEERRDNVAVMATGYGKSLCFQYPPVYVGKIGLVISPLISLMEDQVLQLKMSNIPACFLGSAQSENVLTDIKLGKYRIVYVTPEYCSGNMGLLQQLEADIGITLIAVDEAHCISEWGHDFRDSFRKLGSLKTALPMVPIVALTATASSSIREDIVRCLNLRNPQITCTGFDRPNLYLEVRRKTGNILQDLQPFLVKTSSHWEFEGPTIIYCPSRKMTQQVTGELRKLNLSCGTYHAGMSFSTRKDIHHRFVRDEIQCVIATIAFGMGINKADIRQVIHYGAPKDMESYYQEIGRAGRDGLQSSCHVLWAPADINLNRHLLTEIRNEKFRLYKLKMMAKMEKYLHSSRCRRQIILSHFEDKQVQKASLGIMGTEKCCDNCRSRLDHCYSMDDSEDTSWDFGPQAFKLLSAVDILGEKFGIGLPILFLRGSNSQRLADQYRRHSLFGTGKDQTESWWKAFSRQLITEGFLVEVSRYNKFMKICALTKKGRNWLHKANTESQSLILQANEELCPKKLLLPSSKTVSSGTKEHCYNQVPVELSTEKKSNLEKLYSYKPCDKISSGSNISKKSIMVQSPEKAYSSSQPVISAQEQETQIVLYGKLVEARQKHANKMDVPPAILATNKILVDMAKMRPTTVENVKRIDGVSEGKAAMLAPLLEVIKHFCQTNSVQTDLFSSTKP
Measured quantity: IC50 (nM)

INSERT INTO assay_data (molecule, study_target, data_value) VALUES
  ('CCc1c(N2CCN(C(=O)c3ccn4ccnc4c3O)CC2)c(=O)n2nc(C3=CCOCC3)nc2n1CC(=O)Nc1ccc(C(F)(F)F)cc1C [Example 43]', 'WRN helicase (aa N517-P1238) (Homo sapiens, UniProt Q14191)', 80),
  ('CC(=O)N1CCN(c2c(C)n(CC(=O)Nc3ccc(C(F)(F)F)cc3)c3nc(-c4cccnc4)nn3c2=O)CC1 [Example 106]', 'WRN helicase (aa N517-P1238) (Homo sapiens, UniProt Q14191)', 100);

[1] CC(=O)N1CCN(c2c(C)n(CC(=O)Nc3ccc(C(F)(F)F)cc3)c3nc(-c4ccccn4)nn3c2=O)CC1 [Example 115]
[2] CCc1c(C2CCN(C(C)=O)CC2)c(=O)n2nc(C3=CCC(OC)CC3)nc2n1CC(=O)Nc1ccc(C(F)(F)F)cc1 (centres unmarked) [Example 139]
[3] CC(=O)N1CCN(c2c(C(C)C)n(CC(=O)Nc3ccc(C(F)(F)F)cc3)c3nc(C4=CCOCC4)nn3c2=O)CC1 [Example 162]
Order the 3 molecules from highest to lowest IC50. # answer = labels listed in requested order 3, 1, 2
(3: 900 nM, 1: 500 nM, 2: 100 nM)
